Condition Context: in acetonitrile, 273.15 K
Observation Type: solubility (mole fraction)

Measured solubility (mole fraction), COc1c(N2CCNC(C)C2)c(F)cc2c(=O)c(C(=O)O)cn(C3CC3)c12 (stereo unspecified) : 0.0013

* * *

Condition Context: in DMF, 273.15 K
Observation Type: solubility (mole fraction)

Measured solubility (mole fraction), COc1c(N2CCNC(C)C2)c(F)cc2c(=O)c(C(=O)O)cn(C3CC3)c12 (stereo unspecified) : 0.00259

* * *

Condition Context: in toluene, 278.15 K
Observation Type: solubility (mole fraction)

Measured solubility (mole fraction), COc1c(N2CCNC(C)C2)c(F)cc2c(=O)c(C(=O)O)cn(C3CC3)c12 (stereo unspecified) : 8.1e-05

* * *

Condition Context: in acetone, 278.15 K
Observation Type: solubility (mole fraction)
Answer with a bare number; do not write a unit.

Measured solubility (mole fraction), COc1c(N2CCNC(C)C2)c(F)cc2c(=O)c(C(=O)O)cn(C3CC3)c12 (stereo unspecified) : 0.000942

* * *

Condition Context: in 1,4-dioxane, 298.15 K
Observation Type: solubility (mole fraction)
Answer with a bare number; do not write a unit.

Measured solubility (mole fraction), COc1c(N2CCNC(C)C2)c(F)cc2c(=O)c(C(=O)O)cn(C3CC3)c12 (stereo unspecified) : 0.00129

* * *

Condition Context: in isopropanol, 273.15 K
Observation Type: solubility (mole fraction)
Answer with a bare number; do not write a unit.

Measured solubility (mole fraction), COc1c(N2CCNC(C)C2)c(F)cc2c(=O)c(C(=O)O)cn(C3CC3)c12 (stereo unspecified) : 0.000123

* * *

Condition Context: in ethyl acetate, 313.15 K
Observation Type: solubility (mole fraction)
Answer with a bare number; do not write a unit.

Measured solubility (mole fraction), COc1c(N2CCNC(C)C2)c(F)cc2c(=O)c(C(=O)O)cn(C3CC3)c12 (stereo unspecified) : 0.0102

* * *

Condition Context: in n-butanol, 318.15 K
Observation Type: solubility (mole fraction)
Answer with a bare number; do not write a unit.

Measured solubility (mole fraction), COc1c(N2CCNC(C)C2)c(F)cc2c(=O)c(C(=O)O)cn(C3CC3)c12 (stereo unspecified) : 0.00395

* * *

Condition Context: in acetonitrile, 308.15 K
Observation Type: solubility (mole fraction)

Measured solubility (mole fraction), COc1c(N2CCNC(C)C2)c(F)cc2c(=O)c(C(=O)O)cn(C3CC3)c12 (stereo unspecified) : 0.0037

* * *

Condition Context: in DMF, 313.15 K
Observation Type: solubility (mole fraction)
Answer with a bare number; do not write a unit.

Measured solubility (mole fraction), COc1c(N2CCNC(C)C2)c(F)cc2c(=O)c(C(=O)O)cn(C3CC3)c12 (stereo unspecified) : 0.00864

* * *

Condition Context: in DMF, 298.15 K
Observation Type: solubility (mole fraction)
Answer with a bare number; do not write a unit.

Measured solubility (mole fraction), COc1c(N2CCNC(C)C2)c(F)cc2c(=O)c(C(=O)O)cn(C3CC3)c12 (stereo unspecified) : 0.00566

* * *

Condition Context: in acetone, 313.15 K
Observation Type: solubility (mole fraction)
Answer with a bare number; do not write a unit.

Measured solubility (mole fraction), COc1c(N2CCNC(C)C2)c(F)cc2c(=O)c(C(=O)O)cn(C3CC3)c12 (stereo unspecified) : 0.0027

* * *

Condition Context: in methanol, 313.15 K
Observation Type: solubility (mole fraction)
Answer with a bare number; do not write a unit.

Measured solubility (mole fraction), COc1c(N2CCNC(C)C2)c(F)cc2c(=O)c(C(=O)O)cn(C3CC3)c12 (stereo unspecified) : 0.000902

* * *

Condition Context: in ethyl acetate, 318.15 K
Observation Type: solubility (mole fraction)
Answer with a bare number; do not write a unit.

Measured solubility (mole fraction), COc1c(N2CCNC(C)C2)c(F)cc2c(=O)c(C(=O)O)cn(C3CC3)c12 (stereo unspecified) : 0.0117

* * *

Condition Context: in 2-butanone, 313.15 K
Observation Type: solubility (mole fraction)
Answer with a bare number; do not write a unit.

Measured solubility (mole fraction), COc1c(N2CCNC(C)C2)c(F)cc2c(=O)c(C(=O)O)cn(C3CC3)c12 (stereo unspecified) : 0.00539

* * *

Condition Context: in acetone, 293.15 K
Observation Type: solubility (mole fraction)
Answer with a bare number; do not write a unit.

Measured solubility (mole fraction), COc1c(N2CCNC(C)C2)c(F)cc2c(=O)c(C(=O)O)cn(C3CC3)c12 (stereo unspecified) : 0.00152

* * *

Condition Context: in 2-butanone, 308.15 K
Observation Type: solubility (mole fraction)
Answer with a bare number; do not write a unit.

Measured solubility (mole fraction), COc1c(N2CCNC(C)C2)c(F)cc2c(=O)c(C(=O)O)cn(C3CC3)c12 (stereo unspecified) : 0.00468

* * *

Condition Context: in isopropanol, 278.15 K
Observation Type: solubility (mole fraction)

Measured solubility (mole fraction), COc1c(N2CCNC(C)C2)c(F)cc2c(=O)c(C(=O)O)cn(C3CC3)c12 (stereo unspecified) : 0.000158

* * *

Condition Context: in ethanol, 318.15 K
Observation Type: solubility (mole fraction)
Answer with a bare number; do not write a unit.

Measured solubility (mole fraction), COc1c(N2CCNC(C)C2)c(F)cc2c(=O)c(C(=O)O)cn(C3CC3)c12 (stereo unspecified) : 0.00136

* * *

Condition Context: in ethyl acetate, 293.15 K
Observation Type: solubility (mole fraction)
Answer with a bare number; do not write a unit.

Measured solubility (mole fraction), COc1c(N2CCNC(C)C2)c(F)cc2c(=O)c(C(=O)O)cn(C3CC3)c12 (stereo unspecified) : 0.00588

* * *

Condition Context: in ethanol, 303.15 K
Observation Type: solubility (mole fraction)
Answer with a bare number; do not write a unit.

Measured solubility (mole fraction), COc1c(N2CCNC(C)C2)c(F)cc2c(=O)c(C(=O)O)cn(C3CC3)c12 (stereo unspecified) : 0.000829

* * *

Condition Context: in n-butanol, 293.15 K
Observation Type: solubility (mole fraction)
Answer with a bare number; do not write a unit.

Measured solubility (mole fraction), COc1c(N2CCNC(C)C2)c(F)cc2c(=O)c(C(=O)O)cn(C3CC3)c12 (stereo unspecified) : 0.00195

* * *

Condition Context: in isopropanol, 288.15 K
Observation Type: solubility (mole fraction)
Answer with a bare number; do not write a unit.

Measured solubility (mole fraction), COc1c(N2CCNC(C)C2)c(F)cc2c(=O)c(C(=O)O)cn(C3CC3)c12 (stereo unspecified) : 0.000254

* * *

Condition Context: in toluene, 308.15 K
Observation Type: solubility (mole fraction)
Answer with a bare number; do not write a unit.

Measured solubility (mole fraction), COc1c(N2CCNC(C)C2)c(F)cc2c(=O)c(C(=O)O)cn(C3CC3)c12 (stereo unspecified) : 0.000446

* * *

Condition Context: in ethyl acetate, 298.15 K
Observation Type: solubility (mole fraction)
Answer with a bare number; do not write a unit.

Measured solubility (mole fraction), COc1c(N2CCNC(C)C2)c(F)cc2c(=O)c(C(=O)O)cn(C3CC3)c12 (stereo unspecified) : 0.00679

* * *

Condition Context: in ethanol, 293.15 K
Observation Type: solubility (mole fraction)
Answer with a bare number; do not write a unit.

Measured solubility (mole fraction), COc1c(N2CCNC(C)C2)c(F)cc2c(=O)c(C(=O)O)cn(C3CC3)c12 (stereo unspecified) : 0.000585

The values you see were collected from BigSolDB 2.1.
